Just for reference, patent US20110064751A1 is where these values come from.

Below, each of the binders is paired with its reported pKd value.
Target: T1, Human FAP ectodomain + poly-lys-tag + his6-tag (human, UniProt Q12884 27-760)
T1 construct: also called hu FAP
Assay: SPR (ProteOn XPR36), purified Fab, monovalent binding
Please note pKd is a logarithmic value: minus log10 of concentration in mol/L. Answer with that number alone.

20G8 Fab (Fab, V domains shown, also called clone 20G8) VH: EVQLLESGGGLVQPGGSLRLSCAASGFTFSSYAMSWVRQAPGKGLEWVSAIIGSGSRTYYADSVKGRFTISRDNSKNTLYLQMNSLRAEDTAVYYCAKGWFGGFNYWGQGTLVTVSS VL: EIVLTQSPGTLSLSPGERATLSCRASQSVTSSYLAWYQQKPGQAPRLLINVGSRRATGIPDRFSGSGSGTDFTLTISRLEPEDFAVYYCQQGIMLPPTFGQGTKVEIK
10.16

# pKd lookup, item 14B3 Fab (Fab, V domains shown, also called clone 14B3) VH: EVQLLESGGGLVQPGGSLRLSCAASGFTFSSYAMSWVRQAPGKGLEWVSAILASGAITYYADSVKGRFTISRDNSKNTLYLQMNSLRAEDTAVYYCAKGWFGGFNYWGQGTLVTVSS VL: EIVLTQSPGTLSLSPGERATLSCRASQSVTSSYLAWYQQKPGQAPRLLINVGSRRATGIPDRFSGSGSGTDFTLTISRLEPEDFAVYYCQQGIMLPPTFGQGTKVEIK 9.42

Returns the measured pKd for the input binder. Input: 4B9 Fab (Fab, V domains shown, also called clone 4B9) VH: EVQLLESGGGLVQPGGSLRLSCAASGFTFSSYAMSWVRQAPGKGLEWVSAIIGSGASTYYADSVKGRFTISRDNSKNTLYLQMNSLRAEDTAVYYCAKGWFGGFNYWGQGTLVTVSS VL: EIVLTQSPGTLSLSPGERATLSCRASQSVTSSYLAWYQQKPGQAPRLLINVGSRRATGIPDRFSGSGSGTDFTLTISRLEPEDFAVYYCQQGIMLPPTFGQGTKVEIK 9.80
